System: C. krusei
Assay: Antifungal Activity Assay (broth microtiter MIC), C. krusei
Type: cell-based, Candida krusei
Conditions: Pichia kudriavzevii, ATCC6258, 48 h, Table 3b (additional results); ATCC 6258; 3 replicates; MIC recorded at 48 h; read-out: MIC, C. krusei ATCC 6258
In this section we review reported MIC values for a set of compounds.

{"columns": ["MOLECULE", "TEST TARGET", "RECORDED MEASUREMENT"],
 "data": [
  ["COc1ccc(F)cc1[C@H](Cn1c(=O)n(C(C)(C)C(=O)O)c(=O)c2c(C)c(-n3nccn3)sc21)OC[C@@H](C)C#N", "C. krusei", "> 4.01 µg/mL"],
  ["CCNC(=O)C(C)(C)n1c(=O)c2c(C)c(-n3nccn3)sc2n(C[C@H](OCCC#N)c2ccccc2OC)c1=O", "C. krusei", "2.01 to 4 µg/mL"],
  ["COc1ccc(F)cc1[C@H](Cn1c(=O)n(CC(=O)N2CCCC2)c(=O)c2c(C)c(-n3nccn3)sc21)OCCO", "C. krusei", "> 4.01 µg/mL"]
]}

Sample COc1ccc(F)cc1[C@H](Cn1c(=O)n([C@@H](C)C(N)=O)c(=O)c2c(C)c(-n3nccn3)sc21)OCC(C)(C)C#N — what was its MIC?
> 4.01 µg/mL

Request: CCNC(=O)[C@@H](C)n1c(=O)c2c(C)c(-n3nccn3)sc2n(C[C@H](OCCC#N)c2cc(F)ccc2OC)c1=O
> 4.01 µg/mL

# repeat for CCOC(=O)[C@H]1CC[C@H](O[C@@H](Cn2c(=O)n(C(C)(C)C(=O)NC(C)C)c(=O)c3c(C)c(-n4nccn4)sc32)c2cc(F)ccc2OC)CC1
0.06 to 0.249 µg/mL

###

// reported MIC per item
Test system: C. krusei
Experiment: Antifungal Activity Assay (broth microtiter MIC), C. krusei
Assay type: cell-based, Candida krusei
Conditions: Pichia kudriavzevii, ATCC6258, 48 h, Table 3b (additional results); ATCC 6258; 3 replicates; MIC recorded at 48 h; read-out: MIC, C. krusei ATCC 6258

Examples with answers:
{"columns": ["MOLECULE", "MIC"],
 "data": [
  ["CNC(=O)C(C)(C)n1c(=O)c2c(C)c(-n3nccn3)sc2n(C[C@H](OCCC#N)c2ccccc2OC)c1=O", "2.01 to 4 mg/L"],
  ["COc1ccc(F)cc1[C@H](Cn1c(=O)n(C(C)(C)C(=O)NC2CCCCC2)c(=O)c2c(C)c(-n3nccn3)sc21)OCC(C)=O", "0.25 to 1 mg/L"],
  ["COc1ccc(F)cc1[C@H](Cn1c(=O)n([C@H](C)C(=O)N(C)C(C)C)c(=O)c2c(C)c(-n3nccn3)sc21)OCC(C)(C)O", "> 4.01 mg/L"],
  ["COc1ccc(F)cc1[C@H](Cn1c(=O)n(C(C)(C)C(N)=O)c(=O)c2c(C)c(-n3nccn3)sc21)OC[C@H](C)C#N", "2.01 to 4 mg/L"]
]}

# query: MIC | item COc1ccc(F)cc1[C@@H](O)Cn1c(=O)n([C@@H](C)C(=O)N(C)C(C)C)c(=O)c2c(C)c(-n3nccn3)sc21 | system: C. krusei
2.01 to 4 mg/L

Also COc1ccc(C#N)cc1[C@H](Cn1c(=O)n(C(C)(C)C(=O)NC(C)C)c(=O)c2c(C)c(-n3nccn3)sc21)OCC(C)(C)C#N ?
0.25 to 1 mg/L

Same question, COCCO[C@@H](Cn1c(=O)n(C(C)(C)C(=O)NC(C)C)c(=O)c2c(C)c(-n3nccn3)sc21)c1ccccc1OC this time
0.25 to 1 mg/L

Item: COCCOc1ccc(F)cc1[C@H](Cn1c(=O)n(C(C)(C)C(=O)N2CCCC2)c(=O)c2c(C)c(-n3nccn3)sc21)OC1CCOCC1
1.01 to 2 mg/L

Thanks! And COc1ccccc1[C@@H](O)Cn1c(=O)n(C(C)(C)C(=O)OCc2ccccc2)c(=O)c2c(C)c(-n3nccn3)sc21 ?
> 4.01 mg/L

###

Target: fungal (fACC2)
Conditions: read-out: fACC2 (in vitro ACC2 Inhibition Assay, IC50); Table 2b, additional results; ADP-Glo, 5 nM ACC2, 20 μM ATP, 20 μM acetyl-CoA
MEASURED PARAMETER: IC50

Consider the worked cases shown below.
{"columns": ["MOLECULE", "IC50"],
 "data": [
  ["COc1ccc(F)cc1[C@H](Cn1c(=O)n([C@@H](C)C(=O)NC(C)C)c(=O)c2c(C)c(-n3nccn3)sc21)OCC(C)(C)C#N", "1 to 5 nM"],
  ["COCCOc1ccc(F)cc1[C@H](Cn1c(=O)n(C(C)(C)C(=O)N2CCCC2)c(=O)c2c(C)c(-n3nccn3)sc21)OC1CCOCC1", "1 to 5 nM"],
  ["COCCOc1ccc(F)cc1[C@H](Cn1c(=O)n(C(C)(C)C(=O)NC(C)C)c(=O)c2c(C)c(-n3nccn3)sc21)OCCOC", "1 to 5 nM"],
  ["COc1ccc(F)cc1[C@H](Cn1c(=O)n(C(C)(C)C(=O)N(O)C(C)C)c(=O)c2c(C)c(-n3nccn3)sc21)OCCCO", "1 to 5 nM"],
  ["COc1ccccc1[C@H](Cn1c(=O)n([C@H](C)C(=O)N(C)C(C)C)c(=O)c2c(C)c(-n3nccn3)sc21)OCCC#N", "0.3 to 1 nM"]
]}

IC50 of CCc1ccc(F)cc1[C@H](Cn1c(=O)n(C(C)(C)C(=O)NC(C)C)c(=O)c2c(C)c(-n3nccn3)sc21)OC[C@H](C)C#N on fungal (fACC2)?
1 to 5 nM

###

Target: fungal (fACC2) (UniProt Q00955)
Sequence (Q00955 whole entry): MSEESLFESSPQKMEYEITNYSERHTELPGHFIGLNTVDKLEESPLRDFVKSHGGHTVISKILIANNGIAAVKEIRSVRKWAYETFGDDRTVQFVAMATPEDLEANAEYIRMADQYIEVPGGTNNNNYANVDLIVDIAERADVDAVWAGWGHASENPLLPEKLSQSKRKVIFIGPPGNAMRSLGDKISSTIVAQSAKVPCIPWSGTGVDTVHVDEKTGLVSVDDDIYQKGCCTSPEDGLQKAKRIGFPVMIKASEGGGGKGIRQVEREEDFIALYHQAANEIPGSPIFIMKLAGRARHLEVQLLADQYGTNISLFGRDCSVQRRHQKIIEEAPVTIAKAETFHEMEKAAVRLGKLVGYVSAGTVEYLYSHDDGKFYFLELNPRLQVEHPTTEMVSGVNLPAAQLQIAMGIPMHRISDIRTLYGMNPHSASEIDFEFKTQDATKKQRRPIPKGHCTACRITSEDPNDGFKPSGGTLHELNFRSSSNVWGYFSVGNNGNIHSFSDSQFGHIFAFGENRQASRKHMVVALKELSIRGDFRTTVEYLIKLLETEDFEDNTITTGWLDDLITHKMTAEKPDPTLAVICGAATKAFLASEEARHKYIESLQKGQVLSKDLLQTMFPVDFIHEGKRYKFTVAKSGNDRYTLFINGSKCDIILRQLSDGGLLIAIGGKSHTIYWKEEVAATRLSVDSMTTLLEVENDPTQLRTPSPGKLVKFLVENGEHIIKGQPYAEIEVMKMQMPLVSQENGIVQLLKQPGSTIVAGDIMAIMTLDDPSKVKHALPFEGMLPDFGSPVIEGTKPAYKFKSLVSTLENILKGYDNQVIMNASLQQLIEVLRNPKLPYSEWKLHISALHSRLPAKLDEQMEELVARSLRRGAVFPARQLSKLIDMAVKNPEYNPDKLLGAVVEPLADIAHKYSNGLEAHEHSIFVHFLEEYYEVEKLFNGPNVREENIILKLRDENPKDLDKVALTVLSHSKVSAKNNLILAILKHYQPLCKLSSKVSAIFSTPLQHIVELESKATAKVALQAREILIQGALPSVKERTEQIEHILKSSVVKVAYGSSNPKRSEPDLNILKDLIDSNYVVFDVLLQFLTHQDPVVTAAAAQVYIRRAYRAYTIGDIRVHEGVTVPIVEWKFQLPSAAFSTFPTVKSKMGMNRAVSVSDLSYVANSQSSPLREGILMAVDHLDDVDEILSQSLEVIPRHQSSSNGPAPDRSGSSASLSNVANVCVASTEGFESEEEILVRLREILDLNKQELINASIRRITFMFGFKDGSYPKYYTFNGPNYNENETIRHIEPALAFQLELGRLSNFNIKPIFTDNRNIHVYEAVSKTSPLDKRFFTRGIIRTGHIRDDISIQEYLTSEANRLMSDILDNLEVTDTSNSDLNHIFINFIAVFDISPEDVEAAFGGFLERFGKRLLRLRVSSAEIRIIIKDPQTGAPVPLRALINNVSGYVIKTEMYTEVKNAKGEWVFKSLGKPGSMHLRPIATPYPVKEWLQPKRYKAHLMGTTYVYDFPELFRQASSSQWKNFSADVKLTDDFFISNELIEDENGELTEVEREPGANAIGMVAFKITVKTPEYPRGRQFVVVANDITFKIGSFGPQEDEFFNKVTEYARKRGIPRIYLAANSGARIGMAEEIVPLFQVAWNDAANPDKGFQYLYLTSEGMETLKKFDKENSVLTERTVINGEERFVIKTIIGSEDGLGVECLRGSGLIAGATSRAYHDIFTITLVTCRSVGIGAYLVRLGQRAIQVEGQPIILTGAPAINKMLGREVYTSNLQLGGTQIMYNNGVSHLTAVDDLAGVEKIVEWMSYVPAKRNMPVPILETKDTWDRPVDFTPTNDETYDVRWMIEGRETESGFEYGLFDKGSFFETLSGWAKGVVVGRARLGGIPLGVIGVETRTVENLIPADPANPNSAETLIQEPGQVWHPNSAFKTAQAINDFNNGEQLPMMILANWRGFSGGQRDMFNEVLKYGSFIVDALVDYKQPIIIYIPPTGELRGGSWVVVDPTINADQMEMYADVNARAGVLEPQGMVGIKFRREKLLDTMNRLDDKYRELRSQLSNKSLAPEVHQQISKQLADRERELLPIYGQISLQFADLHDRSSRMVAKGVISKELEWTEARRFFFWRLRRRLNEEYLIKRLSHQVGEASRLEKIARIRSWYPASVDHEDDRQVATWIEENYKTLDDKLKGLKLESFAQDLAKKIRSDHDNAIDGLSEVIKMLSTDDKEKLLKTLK
Settings: read-out: fACC2 (in vitro ACC2 Inhibition Assay, IC50); Table 2b, additional results; ADP-Glo, 5 nM ACC2, 20 μM ATP, 20 μM acetyl-CoA
The compounds listed here are annotated with their IC50.

Record excerpt, results attached:
{"columns": ["COMPOUND", "IC50"],
 "data": [
  ["COc1ccc(F)cc1[C@H](Cn1c(=O)n(C(C)(C)C(=O)NC(C)C)c(=O)c2c(C)c(-n3nccn3)sc21)OC[C@@H](C)O [Compound I-45]", "1 to 5 nM"],
  ["CCO[C@@H](Cn1c(=O)n(C(C)(C)C(=O)N2CCCC2)c(=O)c2c(C)c(-n3nccn3)sc21)c1cc(F)ccc1OC [Compound I-42]", "1 to 5 nM"],
  ["COc1ccc(F)cc1[C@H](Cn1c(=O)n(C(C)(C)C(=O)N2CCCC2)c(=O)c2c(C)c(-n3nccn3)sc21)OCCCO [Compound I-118]", "0.3 to 1 nM"],
  ["COc1ccc(F)cc1[C@H](Cn1c(=O)n(C(C)(C)C(=O)NO)c(=O)c2c(C)c(-n3nccn3)sc21)OCCCO [Compound I-161]", "0.3 to 1 nM"],
  ["COc1ccc(F)cc1[C@H](Cn1c(=O)n(C(C)(C)C(=O)O)c(=O)c2c(C)c(-n3nccn3)sc21)O[C@H]1CC[C@@H](C#N)CC1 [Compound I-156]", "0.3 to 1 nM"]
]}

For the next question, use this compound.
# IC50 lookup, item Cc1c(-n2nccn2)sc2c1c(=O)n(C(C)(C)C(=O)NC(C)C)c(=O)n2C[C@H](OC(C)C)c1cc(F)ccc1OCC#N [Compound I-56]
1 to 5 nM

###

Target: fungal (fACC2) (UniProt Q00955)
Conditions: read-out: fACC2 (in vitro ACC2 Inhibition Assay, IC50); Table 2b, additional results; ADP-Glo, 5 nM ACC2, 20 μM ATP, 20 μM acetyl-CoA
Listed here: items and their measured IC50.

Consider the following illustrative entries.
{"columns": ["MOLECULE", "IC50"],
 "data": [
  ["CCc1ccc(F)cc1[C@H](Cn1c(=O)n(C(C)(C)C(=O)NC(C)C)c(=O)c2c(C)c(-n3nccn3)sc21)OCC(C)(C)O (stereo in doubt)", "1 to 5 nM"],
  ["COc1ccc(F)cc1[C@H](Cn1c(=O)n([C@H](C)C(=O)N(C)C(C)C)c(=O)c2c(C)c(-n3nccn3)sc21)OCCC#N", "1 to 5 nM"]
]}

We next turn to a different molecule, shown below.
If you can, please state the reported IC50 value of COc1ccc(F)cc1[C@H](Cn1c(=O)n(C(C)(C)C(=O)N2CC=CC2)c(=O)c2c(C)c(-n3nccn3)sc21)OC(C)C .
1 to 5 nM

###

pIC50 listing for selected molecules.
Target: fungal (fACC2) (UniProt Q00955)
Details: read-out: fACC2 (in vitro ACC2 Inhibition Assay, IC50); Table 2a; ADP-Glo, 5 nM ACC2, 20 μM ATP, 20 μM acetyl-CoA
pIC50: −log10 of the molar value.

{"columns": ["MOLECULE", "RECORDED MEASUREMENT"],
 "data": [
  ["COc1ccc(F)cc1[C@H](Cn1c(=O)n([C@H](C)C(=O)NC(C)C)c(=O)c2c(C)c(-n3nccn3)sc21)OCC(C)(C)O", "8.30 to 9.00"],
  ["COc1ccc(F)cc1[C@H](Cn1c(=O)n(C(C)(C)C(=O)N2CCCC2)c(=O)c2c(C)c(-n3nccn3)sc21)OCCCO", "9.00 to 9.40"],
  ["COc1ccc(F)cc1[C@H](Cn1c(=O)n([C@H](C)C(=O)N2CCCC2)c(=O)c2c(C)c(-n3nccn3)sc21)OCC(C)(C)O", "9.00 to 9.40"],
  ["Cc1c(-n2nccn2)sc2c1c(=O)n(C(C)(C)C(=O)NC(C)C)c(=O)n2C[C@H](OC(C)C)c1cc(F)ccc1OCC#N", "8.30 to 9.00"],
  ["COc1ccc(F)cc1[C@H](Cn1c(=O)n(C(C)(C)C(=O)NC(C)C)c(=O)c2c(C)c(-n3nccn3)sc21)OCC(C)(C)C#N", "8.30 to 9.00"],
  ["COc1ccc(F)cc1[C@H](Cn1c(=O)n(C(C)(C)C(=O)O)c(=O)c2c(C)c(-n3nccn3)sc21)OCCN1CC(C#N)C1", "8.30 to 9.00"],
  ["COc1ccc(F)cc1[C@H](Cn1c(=O)n(C(C)(C)C(=O)NC2CCCCC2)c(=O)c2c(C)c(-n3nccn3)sc21)OCCC(C)=O", "8.30 to 9.00"],
  ["COc1ccc(F)cc1[C@H](Cn1c(=O)n(C(C)(C)C(=O)N2CCCC2)c(=O)c2c(C)c(-n3nccn3)sc21)OC[C@H](C)O", "9.00 to 9.40"],
  ["COc1ccc(F)cc1[C@H](Cn1c(=O)n(C(C)(C)C(=O)NC(C)C)c(=O)c2c(C)c(-n3nccn3)sc21)O[C@H]1CC[C@@H](C#N)CC1", "8.30 to 9.00"],
  ["COc1ccc(F)cc1[C@H](Cn1c(=O)n(C(C)C(=O)NC(C)C)c(=O)c2c(C)c(-n3nccn3)sc21)OCCO (stereo partly drawn)", "9.00 to 9.40"]
]}

Bench note: what pIC50 did Cc1c(-n2nccn2)sc2c1c(=O)n(C(C)(C)C(=O)NC(C)C)c(=O)n2C[C@H](OC1CCOCC1)c1cc(F)ccc1OCc1ccccc1 show?
8.30 to 9.00

Now the same for COc1ccc(F)cc1[C@H](Cn1c(=O)n(C(C)(C)C(=O)NC(C)C)c(=O)c2c(C)c(-n3nccn3)sc21)OCCN1CC(C#N)C1
8.30 to 9.00
